activity coefficient values for the compounds below.
- test.name: activity coefficient (dimensionless); of the first substance listed, at infinite dilution; xn = mol fraction of the nth substance listed
- condition: 328.15 K; 101.33 kPa; Liquid; Chromatography; x1 = 0
Kindly provide the number alone.

Reference set (5 entries):
CC(C)O [propan-2-ol] + CCCCCCCCCCCCn1cc[n+](C)c1.O=S(=O)([N-]S(=O)(=O)C(F)(F)F)C(F)(F)F
1.26
CCCOCCC [dipropyl ether] + CCCCCCCCCCCCn1cc[n+](C)c1.O=S(=O)([N-]S(=O)(=O)C(F)(F)F)C(F)(F)F
1.73
c1ccccc1 [benzene] + CCCCCCCCCCCCn1cc[n+](C)c1.O=S(=O)([N-]S(=O)(=O)C(F)(F)F)C(F)(F)F
0.594
CCC[N+](=O)[O-] [1-nitropropane] + CCCCCCCCCCCCn1cc[n+](C)c1.O=S(=O)([N-]S(=O)(=O)C(F)(F)F)C(F)(F)F
0.582
CCC(C)(C)OC [2-methoxy-2-methylbutane] + CCCCCCCCCCCCn1cc[n+](C)c1.O=S(=O)([N-]S(=O)(=O)C(F)(F)F)C(F)(F)F
1.17

Could you tell me which activity coefficient is on file for CCCCCCCCCC [decane] + CCCCCCCCCCCCn1cc[n+](C)c1.O=S(=O)([N-]S(=O)(=O)C(F)(F)F)C(F)(F)F ?
5.88

====

- test.name: activity coefficient (dimensionless); of the first substance listed, at infinite dilution; xn = mol fraction of the nth substance listed
- condition: 368.15 K; 101.33 kPa; Liquid; Chromatography; x1 = 0
Rule: activity coefficient below 2 gives MET. Equal to or above 2 gives NOT MET.

Below are worked cases with known answers.
CCOC(C)(C)C [2-ethoxy-2-methylpropane] + CCCCCCCCCCCCn1cc[n+](C)c1.O=S(=O)([N-]S(=O)(=O)C(F)(F)F)C(F)(F)F
MET
CCCC(C)=O [pentan-2-one] + CCCCCCCCCCCCn1cc[n+](C)c1.O=S(=O)([N-]S(=O)(=O)C(F)(F)F)C(F)(F)F
MET

Identify whether the molecule CCCCCCC [heptane] + CCCCCCCCCCCCn1cc[n+](C)c1.O=S(=O)([N-]S(=O)(=O)C(F)(F)F)C(F)(F)F records activity coefficient below 2.
NOT MET

Decide: activity coefficient of CCOCC [diethyl ether] + CCCCCCCCCCCCn1cc[n+](C)c1.O=S(=O)([N-]S(=O)(=O)C(F)(F)F)C(F)(F)F strictly below 2?
MET

Determine if C#CCCCCC [1-heptyne] + CCCCCCCCCCCCn1cc[n+](C)c1.O=S(=O)([N-]S(=O)(=O)C(F)(F)F)C(F)(F)F shows activity coefficient strictly lower than 2.
MET

# check: activity coefficient < 2 for C1CCCCCC1 [cycloheptane] + CCCCCCCCCCCCn1cc[n+](C)c1.O=S(=O)([N-]S(=O)(=O)C(F)(F)F)C(F)(F)F
NOT MET

Hi there! Is activity coefficient for O [water] + CCCCCCCCCCCCn1cc[n+](C)c1.O=S(=O)([N-]S(=O)(=O)C(F)(F)F)C(F)(F)F below 2, do you know?
NOT MET

Determine if c1ccccc1 [benzene] + CCCCCCCCCCCCn1cc[n+](C)c1.O=S(=O)([N-]S(=O)(=O)C(F)(F)F)C(F)(F)F shows activity coefficient strictly lower than 2.
MET

Lab log: compare recorded activity coefficient with 2; is it strictly lower for CCCO [propan-1-ol] + CCCCCCCCCCCCn1cc[n+](C)c1.O=S(=O)([N-]S(=O)(=O)C(F)(F)F)C(F)(F)F ?
MET

Take the molecule CCCCCCCCC [nonane] + CCCCCCCCCCCCn1cc[n+](C)c1.O=S(=O)([N-]S(=O)(=O)C(F)(F)F)C(F)(F)F and say whether its activity coefficient is less than 2.
NOT MET

Regarding C=CCCCCC [1-heptene] + CCCCCCCCCCCCn1cc[n+](C)c1.O=S(=O)([N-]S(=O)(=O)C(F)(F)F)C(F)(F)F , kindly confirm whether its activity coefficient is beneath 2.
NOT MET

For this molecule, is activity coefficient lower than 2? CC(C)=O [acetone] + CCCCCCCCCCCCn1cc[n+](C)c1.O=S(=O)([N-]S(=O)(=O)C(F)(F)F)C(F)(F)F
MET

Is activity coefficient strictly under 2 for the entry CCCCO [butan-1-ol] + CCCCCCCCCCCCn1cc[n+](C)c1.O=S(=O)([N-]S(=O)(=O)C(F)(F)F)C(F)(F)F ?
MET

Does the reported activity coefficient of the following molecule sit strictly below 2? CC(C)(C)O [2-methylpropan-2-ol] + CCCCCCCCCCCCn1cc[n+](C)c1.O=S(=O)([N-]S(=O)(=O)C(F)(F)F)C(F)(F)F
MET

====

- test.name: activity coefficient (dimensionless); of the first substance listed, at infinite dilution; xn = mol fraction of the nth substance listed
- condition: 358.15 K; 101.33 kPa; Liquid; Chromatography; x1 = 0
property.measured: activity coefficient
Please reply with the number alone, leaving off any unit.

CCOC(C)(C)C [2-ethoxy-2-methylpropane] + CCCCCCCCCCCCn1cc[n+](C)c1.O=S(=O)([N-]S(=O)(=O)C(F)(F)F)C(F)(F)F
1.82

Which activity coefficient is reported for this molecule? CCOCC [diethyl ether] + CCCCCCCCCCCCn1cc[n+](C)c1.O=S(=O)([N-]S(=O)(=O)C(F)(F)F)C(F)(F)F
1.16

May I ask what activity coefficient has been recorded for CC1CCCCC1 [methylcyclohexane] + CCCCCCCCCCCCn1cc[n+](C)c1.O=S(=O)([N-]S(=O)(=O)C(F)(F)F)C(F)(F)F ?
2.55

====

- test.name: activity coefficient (dimensionless); of the first substance listed, at infinite dilution; xn = mol fraction of the nth substance listed
- condition: 328.15 K; 101.33 kPa; Liquid; Chromatography; x1 = 0
Reported activity coefficient values for a set of molecules
// return just the number, without any unit appended

Solved entries:
COC(C)(C)C [2-methoxy-2-methylpropane] + CCCCCCCCCCCCn1cc[n+](C)c1.O=S(=O)([N-]S(=O)(=O)C(F)(F)F)C(F)(F)F
0.985
C=CCCCCC [1-heptene] + CCCCCCCCCCCCn1cc[n+](C)c1.O=S(=O)([N-]S(=O)(=O)C(F)(F)F)C(F)(F)F
2.62

Consider now this further molecule.
What does the data say about its activity coefficient? Entry: CCOCC [diethyl ether] + CCCCCCCCCCCCn1cc[n+](C)c1.O=S(=O)([N-]S(=O)(=O)C(F)(F)F)C(F)(F)F
1.03

====

The following molecules are shown together with reported activity coefficient values.
- test.name: activity coefficient (dimensionless); of the first substance listed, at infinite dilution; xn = mol fraction of the nth substance listed
- condition: 358.15 K; 101.33 kPa; Liquid; Chromatography; x1 = 0

Consider the worked cases shown below.
C#CCCC [1-pentyne] + CCCCCCCCCCCCn1cc[n+](C)c1.O=S(=O)([N-]S(=O)(=O)C(F)(F)F)C(F)(F)F
1.24
CO [methanol] + CCCCCCCCCCCCn1cc[n+](C)c1.O=S(=O)([N-]S(=O)(=O)C(F)(F)F)C(F)(F)F
1.05
C#CCCCCCC [1-octyne] + CCCCCCCCCCCCn1cc[n+](C)c1.O=S(=O)([N-]S(=O)(=O)C(F)(F)F)C(F)(F)F
1.99

I am curious: what activity coefficient value has been reported for CCO [ethanol] + CCCCCCCCCCCCn1cc[n+](C)c1.O=S(=O)([N-]S(=O)(=O)C(F)(F)F)C(F)(F)F ?
1.11

Given the entry C1CCCCCC1 [cycloheptane] + CCCCCCCCCCCCn1cc[n+](C)c1.O=S(=O)([N-]S(=O)(=O)C(F)(F)F)C(F)(F)F , report its measured activity coefficient.
2.5

// activity coefficient lookup, key: CCCCCCCCC [nonane] + CCCCCCCCCCCCn1cc[n+](C)c1.O=S(=O)([N-]S(=O)(=O)C(F)(F)F)C(F)(F)F
5.13

Which activity coefficient is listed for c1ccccc1 [benzene] + CCCCCCCCCCCCn1cc[n+](C)c1.O=S(=O)([N-]S(=O)(=O)C(F)(F)F)C(F)(F)F ?
0.669

====

- test.name: activity coefficient (dimensionless); of the first substance listed, at infinite dilution; xn = mol fraction of the nth substance listed
- condition: 338.15 K; 101.33 kPa; Liquid; Chromatography; x1 = 0
Entries whose activity coefficient is below 0.7 take yes (1); entries at or above 0.7 take no (0).

Before answering, review these 5 worked examples.
C#CCCCC [1-hexyne] + CCCCCCCCCCCCn1cc[n+](C)c1.O=S(=O)([N-]S(=O)(=O)C(F)(F)F)C(F)(F)F
no (0)
CCC(=O)OC [methyl propanoate] + CCCCCCCCCCCCn1cc[n+](C)c1.O=S(=O)([N-]S(=O)(=O)C(F)(F)F)C(F)(F)F
yes (1)
CCO [ethanol] + CCCCCCCCCCCCn1cc[n+](C)c1.O=S(=O)([N-]S(=O)(=O)C(F)(F)F)C(F)(F)F
no (0)
CCOC(C)=O [ethyl acetate] + CCCCCCCCCCCCn1cc[n+](C)c1.O=S(=O)([N-]S(=O)(=O)C(F)(F)F)C(F)(F)F
yes (1)
C=CCCCCC [1-heptene] + CCCCCCCCCCCCn1cc[n+](C)c1.O=S(=O)([N-]S(=O)(=O)C(F)(F)F)C(F)(F)F
no (0)

Strictly below 0.7 in activity coefficient? CCC(=O)CC [pentan-3-one] + CCCCCCCCCCCCn1cc[n+](C)c1.O=S(=O)([N-]S(=O)(=O)C(F)(F)F)C(F)(F)F
yes (1)

Just wondering, is activity coefficient of CCC(C)(C)C [2,2-dimethylbutane] + CCCCCCCCCCCCn1cc[n+](C)c1.O=S(=O)([N-]S(=O)(=O)C(F)(F)F)C(F)(F)F below 0.7?
no (0)

Record CC(C)OC(C)C [diisopropyl ether] + CCCCCCCCCCCCn1cc[n+](C)c1.O=S(=O)([N-]S(=O)(=O)C(F)(F)F)C(F)(F)F : is its activity coefficient strictly below 0.7?
no (0)

Threshold test, activity coefficient < 0.7: COC(C)=O [methyl ethanoate] + CCCCCCCCCCCCn1cc[n+](C)c1.O=S(=O)([N-]S(=O)(=O)C(F)(F)F)C(F)(F)F
yes (1)

Lab note: confirm whether the reported activity coefficient for this compound is below 0.7, equality not counting. compound: CCCC(=O)OC [methyl butanoate] + CCCCCCCCCCCCn1cc[n+](C)c1.O=S(=O)([N-]S(=O)(=O)C(F)(F)F)C(F)(F)F
yes (1)

Strictly below 0.7: is that where activity coefficient of CCCC=O [butanal] + CCCCCCCCCCCCn1cc[n+](C)c1.O=S(=O)([N-]S(=O)(=O)C(F)(F)F)C(F)(F)F sits?
yes (1)

Here's an entry: C1CCCCC1 [cyclohexane] + CCCCCCCCCCCCn1cc[n+](C)c1.O=S(=O)([N-]S(=O)(=O)C(F)(F)F)C(F)(F)F . Is its activity coefficient below 0.7?
no (0)

Values were extracted from the NIST ThermoML archive (doi:10.1016/j.jct.2016.08.008).
